# ASSAY TARGET: T1, human Granzyme B (human, UniProt P10144 21-247)
# T1 construct: Captured on a Series S Streptavidin chip for SPR; also called hGranzyme B; GzmB
# T1 sequence (P10144 21-247 limits assumed): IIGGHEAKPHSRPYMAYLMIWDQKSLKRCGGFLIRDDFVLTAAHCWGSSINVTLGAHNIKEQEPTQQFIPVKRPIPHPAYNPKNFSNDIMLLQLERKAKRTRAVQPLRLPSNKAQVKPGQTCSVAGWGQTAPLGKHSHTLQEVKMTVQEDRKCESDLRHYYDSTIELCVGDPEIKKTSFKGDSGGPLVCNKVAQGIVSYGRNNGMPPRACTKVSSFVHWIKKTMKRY
# ASSAY REMARKS: SPR, Biacore 8k+, hGranzyme B captured on SA chip, single cycle kinetics, 1:1 model
Bridge positions count the residues as written; N and C are the ends. Square brackets hold non-standard residues; d marks the D form. Peg4 = polyethylene glycol with 4 units (PEG4); Phe(4-F) = N[C@@H](Cc1ccc(F)cc1)C(=O)O
RECORDED METRIC: Kd (µM)

[[record]]
binder = "{CH2CO}-FNFEDQSADTWQPCGGK(Peg4)-NH2 (thioether N-14) [Compound 16a]"
quantitative_result = 0.019

[[record]]
binder = "{CH2CO}-FNFEDQAPDTWQPCGGK-NH2 (thioether N-14; SMILES C[C@@H]1NC(=O)[C@H](CCC(N)=O)NC(=O)[C@H](CC(=O)O)NC(=O)[C@H](CCC(=O)O)NC(=O)[C@H](Cc2ccccc2)NC(=O)[C@H](CC(N)=O)NC(=O)[C@H](Cc2ccccc2)NC(=O)CSC[C@@H](C(=O)NCC(=O)NCC(=O)N[C@@H](CCCCN)C(N)=O)NC(=O)[C@@H]2CCCN2C(=O)[C@H](CCC(N)=O)NC(=O)[C@H](Cc2c[nH]c3ccccc23)NC(=O)[C@H]([C@@H](C)O)NC(=O)[C@H](CC(=O)O)NC(=O)[C@@H]2CCCN2C1=O) [Compound 61a]"
quantitative_result = 0.0063

[[record]]
binder = "{CH2CO}-LNFEDQSPDTWQPCG-NH2 (thioether N-14; SMILES CC(C)C[C@@H]1NC(=O)CSC[C@@H](C(=O)NCC(N)=O)NC(=O)[C@@H]2CCCN2C(=O)[C@H](CCC(N)=O)NC(=O)[C@H](Cc2c[nH]c3ccccc23)NC(=O)[C@H]([C@@H](C)O)NC(=O)[C@H](CC(=O)O)NC(=O)[C@@H]2CCCN2C(=O)[C@H](CO)NC(=O)[C@H](CCC(N)=O)NC(=O)[C@H](CC(=O)O)NC(=O)[C@H](CCC(=O)O)NC(=O)[C@H](Cc2ccccc2)NC(=O)[C@H](CC(N)=O)NC1=O) [Compound 70a]"
quantitative_result = 0.0185

[[record]]
binder = "{CH2CO}-FNFEDQGADTWQPCG-NH2 (thioether N-14; SMILES C[C@@H]1NC(=O)CNC(=O)[C@H](CCC(N)=O)NC(=O)[C@H](CC(=O)O)NC(=O)[C@H](CCC(=O)O)NC(=O)[C@H](Cc2ccccc2)NC(=O)[C@H](CC(N)=O)NC(=O)[C@H](Cc2ccccc2)NC(=O)CSC[C@@H](C(=O)NCC(N)=O)NC(=O)[C@@H]2CCCN2C(=O)[C@H](CCC(N)=O)NC(=O)[C@H](Cc2c[nH]c3ccccc23)NC(=O)[C@H]([C@@H](C)O)NC(=O)[C@H](CC(=O)O)NC1=O) [Compound 30a]"
quantitative_result = 0.0259

[[record]]
binder = "{CH2CO}-FNFEDQSADTWQPCG-NH2 (thioether N-14; SMILES C[C@@H]1NC(=O)[C@H](CO)NC(=O)[C@H](CCC(N)=O)NC(=O)[C@H](CC(=O)O)NC(=O)[C@H](CCC(=O)O)NC(=O)[C@H](Cc2ccccc2)NC(=O)[C@H](CC(N)=O)NC(=O)[C@H](Cc2ccccc2)NC(=O)CSC[C@@H](C(=O)NCC(N)=O)NC(=O)[C@@H]2CCCN2C(=O)[C@H](CCC(N)=O)NC(=O)[C@H](Cc2c[nH]c3ccccc23)NC(=O)[C@H]([C@@H](C)O)NC(=O)[C@H](CC(=O)O)NC1=O) [Compound 1a]"
quantitative_result = 0.0198

[[record]]
binder = "{CH2CO}-FNFEDQSPYTWQPCG-NH2 (thioether N-14; SMILES C[C@@H](O)[C@@H]1NC(=O)[C@H](Cc2ccc(O)cc2)NC(=O)[C@@H]2CCCN2C(=O)[C@H](CO)NC(=O)[C@H](CCC(N)=O)NC(=O)[C@H](CC(=O)O)NC(=O)[C@H](CCC(=O)O)NC(=O)[C@H](Cc2ccccc2)NC(=O)[C@H](CC(N)=O)NC(=O)[C@H](Cc2ccccc2)NC(=O)CSC[C@@H](C(=O)NCC(N)=O)NC(=O)[C@@H]2CCCN2C(=O)[C@H](CCC(N)=O)NC(=O)[C@H](Cc2c[nH]c3ccccc23)NC1=O) [Compound 59a]"
quantitative_result = 0.006

[[record]]
binder = "{CH2CO}-[Phe(4-F)]NFEDQSPDTWQPCG-NH2 (thioether N-14; SMILES C[C@@H](O)[C@@H]1NC(=O)[C@H](CC(=O)O)NC(=O)[C@@H]2CCCN2C(=O)[C@H](CO)NC(=O)[C@H](CCC(N)=O)NC(=O)[C@H](CC(=O)O)NC(=O)[C@H](CCC(=O)O)NC(=O)[C@H](Cc2ccccc2)NC(=O)[C@H](CC(N)=O)NC(=O)[C@H](Cc2ccc(F)cc2)NC(=O)CSC[C@@H](C(=O)NCC(N)=O)NC(=O)[C@@H]2CCCN2C(=O)[C@H](CCC(N)=O)NC(=O)[C@H](Cc2c[nH]c3ccccc23)NC1=O) [Compound 54a]"
quantitative_result = 0.0049

[[record]]
binder = "{CH2CO}-FNFEDQAADTWQPCG-NH2 (thioether N-14; SMILES C[C@@H]1NC(=O)[C@H](C)NC(=O)[C@H](CCC(N)=O)NC(=O)[C@H](CC(=O)O)NC(=O)[C@H](CCC(=O)O)NC(=O)[C@H](Cc2ccccc2)NC(=O)[C@H](CC(N)=O)NC(=O)[C@H](Cc2ccccc2)NC(=O)CSC[C@@H](C(=O)NCC(N)=O)NC(=O)[C@@H]2CCCN2C(=O)[C@H](CCC(N)=O)NC(=O)[C@H](Cc2c[nH]c3ccccc23)NC(=O)[C@H]([C@@H](C)O)NC(=O)[C@H](CC(=O)O)NC1=O) [Compound 27a]"
quantitative_result = 0.0109

